// data source = PubChem BioAssay AID624133

Assay: control 3'UTR Renilla luciferase suppression, dose response, counter-screen for Shn3 inhibitor project, cell-based, Clone20-Shn3RL, cherry-picked (AID 624133)
Conditions: Clone20-Shn3RL cells, Renilla luciferase luminescence, 24 h; at 35 µM (top of the series) unless noted
In all, about 1,600 compounds went through this assay and about 1,300 (81%) were called active. The set was probably picked from earlier hits. These entries were drawn from the full list. Potency and affinity values are given separately.
Label not fulfilled if activity change, negative = inhibition falls below 40%; label fulfilled in every other case.

Kindly determine if activity change, negative = inhibition recorded for `CCOc1ccc(Br)cc1C1=CC(=O)C[C@H](c2ccc(OC)cc2)C1` is above or exactly 40%.
fulfilled

Hi team, for `COc1cc(SC)ccc1C(=O)Nc1nc2ccccc2[nH]1` , is the recorded activity change, negative = inhibition at or above 40%?
not fulfilled

# bool: activity change, negative = inhibition of `CC(C)n1c(/C=C/[C@@H](O)C[C@@H](O)CC(=O)O)c(-c2ccc(F)cc2)c2ccccc21` >= 40%
not fulfilled

Please indicate if the recorded activity change, negative = inhibition for `Fc1ccccc1N1CCN(Cc2nc(-c3ccccc3)no2)CC1` meets or exceeds 40%.
not fulfilled

Check the entry `CCN(CC)C(=S)Sc1c(-c2ccccc2)c2cc(Cl)ccc2[nH]c1=O` : does activity change, negative = inhibition equal or exceed 40%?
not fulfilled

Reported activity change, negative = inhibition at or above 40%? `COc1ccc(OCc2cccc(C(=O)O)c2)cc1`
fulfilled

Is activity change, negative = inhibition for `Cc1c(CCOC(=O)CC23CC4CC(CC(C4)C2)C3)sc[n+]1CC(=O)c1ccc(Br)cc1` at or above 40%?
not fulfilled

Decide: activity change, negative = inhibition of CCCC(c1nnnn1Cc1ccc(OC)cc1)N1CCN(c2ccccc2)CC1 (stereo not given) >= 40%?
fulfilled
